Hello, the source for this data is patent US20250034594A1, in case you need it.

tested on: gene editing with dCas9; test: Screen of 322 new SSAP proteins, gene editing activity with dCas9 (Table 5); format: cell-based; conditions: normalized

| molecule | dCas9 with SSAP activity (normalized) |
| --- | --- |
| SSAP_199: SEQ ID NO: 368; uncultured Mediterranean phage uvMED (protein, uncultured Mediterranean phage uvMED) TSSITPLVAMQGTLEKMADKFTEALPRQMDVNKFISVAKLTLNKNPRLLQADKTSLMQTFMKAAQDGLYLDGKEAAAVQYGQSVQYIPMVEGIIKVLHNSGLIKTISAEVVYENDFFDYELGTAPKITHKPLIVGDRGKPMCVYAVAITTNDGEYYEVMNMDQINQCRQVSKASSSPHSPWVKWFDQMAKKTVIHRIAKRLPKNDAINSVVTVDDEPNFQQAVNVTPSEPKDSLSRLRDSIGMEGKDVEQAANDLLEKYNKEAREE | −0.364 |
| SSAP_172: SEQ ID NO: 341; Staphylococcus pettenkoferi (protein, listed as Staphylococcus pettenkoferi) ATQKDFKNQISQKETQQKQEVQKKKKGPRQQVSDLLDRMAPEIEKALPNHLSADRMARVAMTAVSSNPKLLECDPKSFIGAVMQSAQLGLEPNTALGEAYLVPYAGKVNFQLSYLGLINLATRSGQYKAIYAHEVYAEDEFRYQYGLHKDLIHKPVDNPKGKPIGYYAVYHLLNGGYDFVYWTTERIQKHAKKYSFAVQKGYQSPWNDEFDAMAKKTVLKDLLKYAPKSIEMNNAVRSDDKQSELSDEGVVIDVTNYDEENGEEK | −0.724 |
